Biological target: T1, human IL-18BP (amino acids 31-194) (human, UniProt O95998 31-194, biotinylated on the AviTag (BirA ligase) where immobilized or used for staining)
T1 construct: Secreted decoy receptor; made in insect cells (gp67 signal peptide); also called hIL-18BP
T1 sequence: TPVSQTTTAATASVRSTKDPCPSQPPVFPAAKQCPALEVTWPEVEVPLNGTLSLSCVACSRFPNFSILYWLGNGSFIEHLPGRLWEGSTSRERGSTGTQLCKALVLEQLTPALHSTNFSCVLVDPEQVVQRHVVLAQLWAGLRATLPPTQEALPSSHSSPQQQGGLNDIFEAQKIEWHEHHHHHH
Test: SPR; KD BP / KD Ra normalized to WT IL-18
measured-endpoint: IL-18 BP:Ra Dissociation Constant Ratio

binder: hCS1 (ligand, recombinant with C-terminal hexahistidine tag in SPR and cell assays) YFGKLESKLSVIRNLNDQVLFIDQGNRPLFEDMTDSDCRDNAPRTIFIISTYKDSQPRGKAVTISVKCEKISTLSCENKIISFKEMNPPDNIKDTKSDIIFFQRDVPGHKHKMQFESSSYEGYFLACEKERDLFKLILKKEDELGDRSIMFTVQNED
qual: =
numeric-readout: 3020
//
binder: hCS3 (ligand, recombinant with C-terminal hexahistidine tag in SPR and cell assays) RFGKLESKLSVIRNLNDQVLFIDQGNRPLFEDMTDSDCRDNAPRTIFIISTYKDSQPRGKAVTISVKCEKISTLSCENKIISFKEMNPPDNIKDTKSDIIFFQRDVPGHKHKMQFESSSYEGYFLACEKERDLFKLILKKEDELGDRSIMFTVQNED
qual: =
numeric-readout: 4350
//
binder: 6-27 (ligand, recombinant with C-terminal hexahistidine tag in SPR and cell assays; also called h6-27; version 2.0 human DR-IL-18 variant) YFGKLESKLSVIRNLNDQVLFIDQGNRPLFEDMTDSDCRDNAPRTIFIISKYSDSRARGLAVTISVKCEKISTLSCENKIISFKEMNPPDNIKDTKSDIIFFARSVPGHGRKTQFESSSYEGYFLACEKERDLFKLILKKEDELGDRSIMFTVQNED
qual: >
numeric-readout: 5.86e+06
//
binder: 6-31 (ligand, recombinant with C-terminal hexahistidine tag in SPR and cell assays; also called h6-31; version 2.0 human DR-IL-18 variant) YFGKLESKLSVIRNLNDQVLFIDQGNRPLFEDMTDSDCRDNAPRTIFIISKYGDSGARGLAVTISVKCEKISTLSCENKIISFKEMNPPDNIKDTKSDIIFFERDVPGHSGKVQFESSSYEGYFLACEKERDLFKLILKKEDELGDRSIMFTVQNED
qual: >
numeric-readout: 1.06e+06
